Cited source for all entries: patent US20140213531A1

Quick reference for % inhibition at 100 µM among some binders
- study.system: Coagulation Factor Xa, from human plasma (human, UniProt P00742 41-488, limits assumed)
- Sequence (P00742 41-488 limits assumed): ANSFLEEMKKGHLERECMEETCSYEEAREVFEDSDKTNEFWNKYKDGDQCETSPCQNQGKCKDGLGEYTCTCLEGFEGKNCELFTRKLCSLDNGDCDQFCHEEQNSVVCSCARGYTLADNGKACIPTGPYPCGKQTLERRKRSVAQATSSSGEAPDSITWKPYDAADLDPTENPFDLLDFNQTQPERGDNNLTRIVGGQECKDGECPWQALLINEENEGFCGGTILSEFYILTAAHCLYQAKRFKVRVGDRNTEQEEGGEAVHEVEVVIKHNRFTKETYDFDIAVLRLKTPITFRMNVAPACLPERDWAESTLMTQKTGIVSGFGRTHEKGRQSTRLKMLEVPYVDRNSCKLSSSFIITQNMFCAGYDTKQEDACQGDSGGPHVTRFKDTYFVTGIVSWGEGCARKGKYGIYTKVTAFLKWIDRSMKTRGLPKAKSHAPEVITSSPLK
- assay.summary: cell-based or functional assay
Bridges are numbered along the chain shown (N, C = ends). [ ]: non-standard residue; d: D form.
Quick note: give the figure in %, leave out the unit.

[
  {
    "binder": "cyclo(ICTKSDPAICR[dP]P) (disulfide 2-10) [Example 52]",
    "reported.endpoint": "% inhibition at 100 µM",
    "numeric.value": 6
  },
  {
    "binder": "ICTKSDPPXCR (HELM PEPTIDE1{I.C.T.K.S.D.P.P.[Cha].C.R.[dP].P}$PEPTIDE1,PEPTIDE1,2:R3-10:R3|PEPTIDE1,PEPTIDE1,1:R1-13:R2$$$V2.0; SMILES CC[C@H](C)[C@@H]1NC(=O)[C@@H]2CCCN2C(=O)[C@H]2CCCN2C(=O)[C@H](CCCNC(=N)N)NC(=O)[C@@H]2CSSC[C@H](NC1=O)C(=O)N[C@@H]([C@@H](C)O)C(=O)N[C@@H](CCCCN)C(=O)N[C@@H](CO)C(=O)N[C@@H](CC(=O)O)C(=O)N1CCC[C@H]1C(=O)N1CCC[C@H]1C(=O)N[C@@H](CC1CCCCC1)C(=O)N2) [Example 58]",
    "reported.endpoint": "% inhibition at 100 µM",
    "numeric.value": 25
  }
]

Field: next binder
Quick one: % inhibition at 100 µM of FCTXSDPPICY (HELM PEPTIDE1{F.C.T.[Nle].S.D.P.P.I.C.Y.[dP].P}$PEPTIDE1,PEPTIDE1,2:R3-10:R3|PEPTIDE1,PEPTIDE1,1:R1-13:R2$$$V2.0; SMILES CCCC[C@@H]1NC(=O)[C@H]([C@@H](C)O)NC(=O)[C@@H]2CSSC[C@H](NC(=O)[C@H]([C@@H](C)CC)NC(=O)[C@@H]3CCCN3C(=O)[C@@H]3CCCN3C(=O)[C@H](CC(=O)O)NC(=O)[C@H](CO)NC1=O)C(=O)N[C@@H](Cc1ccc(O)cc1)C(=O)N1CCC[C@@H]1C(=O)N1CCC[C@H]1C(=O)N[C@@H](Cc1ccccc1)C(=O)N2) [Example 60] ? 11
